Each record here notes measured koff.
Biological target: T1, human soluble urokinase plasminogen activator receptor (suPAR) (human, UniProt Q03405 23-303, limits assumed)
T1 construct: Column head says only 'human'; also called human suPAR; hsuPAR
T1 sequence (Q03405 23-303 limits assumed): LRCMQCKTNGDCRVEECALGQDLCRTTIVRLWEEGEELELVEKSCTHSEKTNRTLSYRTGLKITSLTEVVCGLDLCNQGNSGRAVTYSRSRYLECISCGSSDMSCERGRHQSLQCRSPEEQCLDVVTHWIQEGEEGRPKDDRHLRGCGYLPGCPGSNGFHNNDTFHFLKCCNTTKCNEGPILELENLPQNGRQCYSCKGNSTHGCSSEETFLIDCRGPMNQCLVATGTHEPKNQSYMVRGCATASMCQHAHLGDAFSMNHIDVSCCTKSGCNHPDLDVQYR
Test: BLI (Octet) off-rate screen of scFv clones
API: value field is a number in s⁻¹; no unit string.

Some binders with recorded koff:
Reported koff ( suPAR_DB02_G02 (scFv, V domains shown, scFv clone from phage display) VH: QVQLVQSGAEVKKPGASVKVSCKASGYTFTRYYMHWVRQAPGQGLEWMGWIDHENGSTIYAQKFQGRVTMTRDTSTSTVYMELSSLRSEDTAVYYCARGYDVDWFVYWGQGTLVTVSS VL: DIQMTQSPSSLSASVGDRVTITCSARSSVSYMYWYQQKPGKAPKLLIYRTSSLQSGVPSRFSGSGSGTDFTLTISSLQPEDFATYYCQQYHSYPPTFGGGTKVEIK ) = 0.00242

Documented koff of suPAR_DB02_F02 (scFv, V domains shown, scFv clone from phage display) VH: QVQLVQSGAEVKKPGASVKVSCKASGYTFTDYYMHWVRQAPGQGLEWMGWIDPENGNTIYDQKFQGRVTMTRDTSTSTVYMELSSLRSEDTAVYYCARGYDVDWFVYWGQGTLVTVSS VL: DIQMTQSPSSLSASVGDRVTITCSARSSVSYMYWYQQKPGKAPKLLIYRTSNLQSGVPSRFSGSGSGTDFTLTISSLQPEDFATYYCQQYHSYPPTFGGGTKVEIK : 0.00179

Attention now turns to another entry.
The binder listed as suPAR_DB02_D03 (scFv, V domains shown, scFv clone from phage display) VH: QVQLVQSGAEVKKPGASVKVSCKASGYTFTSHYMHWVRQAPGQGLEWMGWIDHENGNTIYDQKFQGRVTMTRDTSTSTVYMELSSLRSEDTAVYYCARGYDVDWFVYWGQGTLVTVSS VL: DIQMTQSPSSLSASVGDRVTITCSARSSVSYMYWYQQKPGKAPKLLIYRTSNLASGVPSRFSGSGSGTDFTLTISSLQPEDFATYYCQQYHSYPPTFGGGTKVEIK shows koff equal to 0.0055
